test system: Tov-21-G; assay: Primary qHTS to identify gynecologic anti-cancer compounds using libraries of approved drugs and bioactive compounds (AID 1345084); settings: Gynecologic cancer cell panel viability, ATPlite luminescence, 48 h; series mostly up to 57.5 µM; note: nearly all actives have a fitted effect of over 55% in size
Results filed as inconclusive are left out. Calls of active or inactive are those of the source. Calls come from the whole dose curve; as a rule, active = well fitted cell-killing curve with a large enough effect; inconclusive = small, poorly fitted or top-dose-only effect, or effect the other way; inactive = flat fitted curve, though single readings scatter.
Output constraint: value belongs to class 1 = active, class 0 = inactive

Example entries and their recorded answers appear below.
- C[C@@H]1CC[C@]2(C(=O)OC3OC(CO)C(O)C(O)C3O)CC[C@]3(C)C(=CCC4[C@@]5(C)CC[C@H](O)[C@](C)(C(=O)O)C5CC[C@]43C)C2[C@]1(C)O (some centres undefined): class 0
- CC(C)(C)c1cc(Br)cc([C@H](CC(=O)O)NC(=O)CNC(=O)c2cc(O)cc(NC3=NCC(O)CN3)c2)c1 (some centres undefined): class 0
- C/C=C1\[C@H](O[C@@H]2O[C@H](CO)[C@@H](O)[C@H](O)[C@H]2O)OC=C2C(=O)OCCc3ccc(O)c(c3)Oc3ccc(cc3)CCOC(=O)C[C@H]21: class 0
- C=CC(=O)N1CCN(C(=O)CNc2cc(I)c(Cl)cc2O)CC1: class 0
- C/C=C/C=C/C(O)=C1\C(O)=C(C)C(=O)[C@@]2(C)OC(=O)[C@@](C)(NC(=O)/C=C/C(=O)O)[C@@H]12: class 0

# lookup: test call for "Cc1cc(C)nc(NS(=O)(=O)c2ccc(NC(=S)NC(=O)COc3ccc(Br)cc3Cl)cc2)n1"
class 0

# lookup: test call for "CCOc1cc2ncc(C#N)c(Nc3ccc(F)c(Cl)c3)c2cc1NC(=O)/C=C/CN(C)C"
class 1

# lookup: test call for NC1CCCCN(c2c(F)cc3c(=O)c(C(=O)O)cn(C4CC4)c3c2Cl)C1 (centres undefined)
class 0

# lookup: test call for C=C1C(OC(C)=O)CCC2(C)CC3(OC)OC(=O)C(C)=C3CC12 (centres undefined)
class 0

# lookup: test call for CC1CCC2(C(=O)O)CCC3(C)C(=CCC4C5(C)CCC(O)C(C)(CO)C5CCC43C)C2C1(C)O (centres undefined)
class 0

# lookup: test call for CC1(C)CC(=O)C2=C(C1)NC(=S)NC2c1cccc(O)c1 (centres undefined)
class 1

# lookup: test call for CC1(O)CC(O)C2(O)C=COC(O[C@@H]3O[C@H](CO)[C@@H](O)[C@H](O)[C@H]3O)C12 (some centres undefined)
class 0

# lookup: test call for NC(=O)c1csc(C2OC(CO)C(O)C2O)n1 (centres undefined)
class 0

# lookup: test call for CC1(O)CCCC2(C)C1CCC13CC(CO)C(CCC12)C3 (centres undefined)
class 0

# lookup: test call for "Cc1cc(=O)oc2c(C=O)c(O)ccc12"
class 0

# lookup: test call for "CN(C)CCn1cc(S(=O)(=O)c2cccc(F)c2)c2cccnc21"
class 0

# lookup: test call for CC1CC(=O)C2=C(CCC3(O)C(O)c4c(O)cccc4C(=O)C23O)C1 (centres undefined)
class 0

----------
test system: KB-3-1; test: Cytotoxic Profiling of Annotated Libraries Using Quantitative High-Throughput Screening (AID 1296008); details: Five cell lines viability, CellTiter-Glo ATP luminescence, 48-72 h; note: nearly all actives have a fitted effect of over 60% in size
Results filed as inconclusive are left out. The source made the active and inactive calls. Calls follow the shape of the dose curve; as a rule, active = well fitted inhibition curve with a large enough effect; inconclusive = small, poorly fitted or top-dose-only effect; inactive = flat fitted curve, though single readings scatter.
Output constraint: value belongs to 1 (yes) = active, 0 (no) = inactive

Example entries and their recorded answers appear below.
* C=CC(=O)Nc1cccc(Nc2nc(Nc3ccc(N4CCN(C(C)=O)CC4)cc3OC)ncc2C(F)(F)F)c1 | 1 (yes)
* COc1cc(C(=O)OC[C@@]2(O)CO[C@@H](O[C@H]3[C@H](Oc4ccc(C(=O)O)cc4OC)O[C@H](CO)[C@@H](O)[C@@H]3O)[C@@H]2O)ccc1O | 0 (no)
* CC1(C)CC[C@]2(C(=O)O[C@@H]3O[C@H](CO)[C@@H](O)[C@H](O)[C@H]3O)CC[C@]3(C)C(=CCC4[C@@]5(C)C[C@@H](O)[C@H](O)C(C)(C)C5CC[C@]43C)C2[C@@H]1O (stereo partly drawn) | 0 (no)

# lookup: test call for "CNS(=O)(=O)c1ccccc1Nc1nc(Nc2ccc(N3CCN(C)CC3)cc2OC)ncc1Cl"
1 (yes)

# lookup: test call for C/C(=C\CCC1(C)C2CCC(C2)C1(C)O)C(=O)O (stereo not drawn)
0 (no)

# lookup: test call for C[C@@H]1CC[C@]2(C(=O)O[C@@H]3O[C@H](CO)[C@@H](O)[C@H](O)[C@H]3O)CC[C@]3(C)C(=CCC4[C@@]5(C)C[C@@H](O)[C@H](O)[C@@](C)(C(=O)O[C@H]6[C@H](O)C[C@@]7(C)C(CC[C@]8(C)C7CC=C7[C@H]9[C@](C(=O)O[C@@H]%10O[C@H](CO)[C@@H](O)[C@H](O)[C@H]%10O)(CC[C@@H](C)[C@@]9(C)O)CC[C@]78C)[C@@]6(CO)C(=O)O)C5CC[C@]43C)[C@@H]2[C@]1(C)O (stereo partly drawn)
0 (no)

# lookup: test call for "O=C(/C=C/c1ccccc1)OC[C@]12O[C@H]1[C@@H](O)[C@@H]1C=CO[C@@H](O[C@@H]3O[C@H](CO)[C@@H](O)[C@H](O)[C@H]3O)[C@@H]12"
0 (no)

# lookup: test call for CC1CC(O)/C=C/C(O)C(O)CC(=O)Cc2c(Cl)c(O)cc(O)c2C(=O)O1 (stereo not drawn)
0 (no)

# lookup: test call for "CC(C)c1cc(CNc2nc(Nc3cc(C4CC4)[nH]n3)cc(N3CCN(C)CC3)n2)on1"
1 (yes)

# lookup: test call for CC1=C(C)C(=O)OC(C(C)C2CCC3C4C5OC5C5(O)CC(OC6OC(CO)C(OC7OC(C)C(O)C(O)C7O)C(O)C6O)CC(O)C5(C)C4CCC23C)C1 (stereo not drawn)
0 (no)

# lookup: test call for "C[C@H](N)C(=O)N[C@@H](Cc1ccc(O)cc1)C(=O)N1CCC[C@H]1C(=O)NCC(=O)N[C@@H](CCCCN)C(=O)N[C@@H](Cc1ccccc1)C(N)=O"
0 (no)

# lookup: test call for CC1C(OC(=O)c2ccccc2)C(O)C2C(C(=O)O)=COC(OC3OC(CO)C(O)C(O)C3O)C12 (stereo not drawn)
0 (no)

# lookup: test call for "Cc1c[nH]c2nccc(Oc3c(F)cc(Nc4cc(Cl)nc(N)n4)cc3F)c12"
1 (yes)

----------
molecular target: Phenylethanolamine N-methyltransferase (Homo sapiens) (UniProt P11086); assay: Confirmatory Screen for Target Class Profiling of Small Molecule Inhibitors of Methyltransferases (AID 1745852); conditions: MTase-Glo luminescence, SAH detection, recombinant enzyme; measured here: PNMT max response; stronger effect = lower value
Sequence (P11086 whole entry, looked up): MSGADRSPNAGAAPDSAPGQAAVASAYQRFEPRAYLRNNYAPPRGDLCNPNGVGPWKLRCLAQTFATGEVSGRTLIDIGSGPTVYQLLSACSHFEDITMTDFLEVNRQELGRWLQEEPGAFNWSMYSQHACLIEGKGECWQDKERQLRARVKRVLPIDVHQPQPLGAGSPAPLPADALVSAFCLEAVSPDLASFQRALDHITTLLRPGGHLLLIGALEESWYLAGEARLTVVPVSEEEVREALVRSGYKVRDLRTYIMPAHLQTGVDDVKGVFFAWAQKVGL
// values below are reported activity
Please give a number only; it is taken to be in %.

Would you please look over these solved cases?
• COc1cc2c(NC3CCN(CC4CCCCC4)CC3)nc(N3CCCN(C(C)C)CC3)nc2cc1OCCCN1CCCCC1 = -1.55
• CC(C)=CCC(O)/C(C)=C/CO[C@@H]1O[C@H](CO)[C@@H](O)[C@H](O)[C@H]1O (stereo partly drawn) = 5.19
• CC1(C)CC[C@]2(C(=O)O[C@@H]3O[C@H](CO)[C@@H](O)[C@H](O)[C@H]3O)CC[C@]3(C)C(=CCC4[C@@]5(C)C[C@@H](O)[C@H](O)C(C)(C)C5CC[C@]43C)C2[C@@H]1O (stereo partly drawn) = -0.0843
• COc1cc(C(=O)NC2CCN(C)CC2)ccc1Nc1ncc2c(n1)N(C1CCCC1)CC(F)(F)C(=O)N2C = -20.9
• Cc1ccc([N+](=O)[O-])cc1S(=O)(=O)N(C)/N=C/c1cnc2ccc(Br)cn12 = -16.6

// field: activity; key: C=C(C(=O)O)C1CC(O)C2(C)CCCC(=C)C2C1 (stereo not drawn) ; value = 3.46

// field: activity; key: "Cc1cc(=O)oc2c(C=O)c(O)ccc12" ; value = -37.6

// field: activity; key: CC1=CC(=O)C2(OC3OC(C)C(O)C(OC(=O)/C=C/c4ccccc4)C3O)C=COC(OC3OC(CO)C(O)C(O)C3O)C12 (stereo not drawn) ; value = 1.5

----------
test system: HaCat; assay: Cytotoxic Profiling of Annotated Libraries Using Quantitative High-Throughput Screening (AID 1296008); settings: Five cell lines viability, CellTiter-Glo ATP luminescence, 48-72 h; stronger effect = lower value; note: nearly all actives have a fitted effect of over 60% in size; for max response: % is set by controls: 0 for no effect and ±100 for the full control effect
Records with an inconclusive call do not appear.
// values below are reported max response
Please give a number only; it is taken to be in %.

Would you please look over these solved cases?
- C[C@@H]1C(=O)O[C@H](C)[C@H]1CC(=O)[C@](C)(O)[C@H]1CC[C@@]2(O)C3=CC(=O)[C@@H]4C[C@@H](O)[C@@H](O)C[C@]4(C)C3CC[C@]12C (some centres undefined): -15.8
- C=C1C[C@]23C[C@H]1[C@@H](O)C[C@H]2[C@@]12C=C[C@H](O)[C@@](C)(C(=O)O1)[C@H]2[C@@H]3C(=O)O: -32.5
- O=C1OCC(c2ccccc2)=C1Cc1ccccc1: -5.17

Here is the next item to consider.
// field: max response; key: O=C(OC1C=C(CO)C2C(OC3OC(CO)C(O)C(O)C3O)OC=CC12)c1ccc(O)cc1 (centres undefined) ; value = -13.5
